- STUDY_TARGET: CDK4/cyclinD3 (Homo sapiens)
- Sequence (P11802 whole entry): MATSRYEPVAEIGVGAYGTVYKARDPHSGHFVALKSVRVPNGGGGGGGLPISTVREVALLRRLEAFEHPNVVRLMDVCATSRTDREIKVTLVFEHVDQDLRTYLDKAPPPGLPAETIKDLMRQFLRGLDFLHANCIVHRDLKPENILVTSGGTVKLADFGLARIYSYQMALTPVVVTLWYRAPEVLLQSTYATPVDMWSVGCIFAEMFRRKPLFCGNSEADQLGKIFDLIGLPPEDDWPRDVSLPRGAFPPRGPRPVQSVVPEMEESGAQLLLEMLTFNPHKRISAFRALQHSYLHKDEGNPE
- Sequence (P30281 whole entry partner): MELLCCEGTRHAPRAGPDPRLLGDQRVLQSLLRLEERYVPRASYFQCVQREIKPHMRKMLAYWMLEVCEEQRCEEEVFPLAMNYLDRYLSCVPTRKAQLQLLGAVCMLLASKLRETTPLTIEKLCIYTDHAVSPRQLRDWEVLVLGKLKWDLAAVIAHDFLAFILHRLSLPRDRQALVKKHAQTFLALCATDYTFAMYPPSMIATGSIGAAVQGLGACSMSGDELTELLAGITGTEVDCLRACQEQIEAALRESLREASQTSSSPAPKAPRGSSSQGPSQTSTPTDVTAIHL
- METHOD: Cyclin-dependent kinase activity assay (continuous ATP coupling assay), CDK4/cyclinD3
- COND: CDK4/cyclinD3 60 nM, ATP 500 μM, Rb copeptide 500 μM, 15 min preincubation, pH 7.5, 1% DMSO
pIC50: −log10 of the molar value.
Catalogue of pIC50 values
EXPERIMENTAL_ENDPOINT: pIC50

INSERT INTO assay_data (molecule, observed_result) VALUES
  ('O=S(=O)(NCCO)c1ccc(Nc2ncc(C(F)(F)F)c(-n3cccn3)n2)cc1F', '≤ 7.00'),
  ('CNS(=O)(=O)c1ccc(Nc2ncc(Cl)c(-n3cc(CC(C)(C)O)cn3)n2)cc1', '7.00 to 8.00'),
  ('CN1CCC(N2CCN(c3ccc(Nc4ncc(C(F)(F)F)c(-n5cccn5)n4)cc3)CC2)CC1', '≤ 7.00'),
  ('CNS(=O)(=O)c1ccc(Nc2ncc(C(F)(F)F)c(-n3cc(C4CC4)cn3)n2)cc1', '7.00 to 8.00'),
  ('[2H]C([2H])([2H])NS(=O)(=O)c1ccc(Nc2ncc(C(F)(F)F)c(-n3cc(CCO)cn3)n2)cc1', '7.00 to 8.00'),
  ('O=C(O)CNS(=O)(=O)c1ccc(Nc2ncc(C(F)(F)F)c(-n3cccn3)n2)cc1', '≤ 7.00'),
  ('COCCNS(=O)(=O)c1ccc(Nc2ncc(C(F)(F)F)c(-n3cccn3)n2)cc1', '≤ 7.00'),
  ('CN1CCC(NS(=O)(=O)c2ccc(Nc3ncc(C(F)(F)F)c(-n4cccn4)n3)cc2)CC1', '7.00 to 8.00'),
  ('CNS(=O)(=O)c1ccc(Nc2ncc(C(F)(F)F)c(-n3ccc(CC(C)(C)O)n3)n2)cc1', '≤ 7.00'),
  ('CC(C)(O)Cc1cnn(-c2nc(N[C@@H]3CCOC[C@H]3O)ncc2C(F)(F)F)c1 (single isomer, unassigned)', '7.00 to 8.00'),
  ('CC(C)(CO)NS(=O)(=O)c1ccc(Nc2ncc(C(F)(F)F)c(-n3cccn3)n2)cc1', '≤ 7.00'),
  ('CNS(=O)(=O)c1ccc(Nc2ncc(C(F)(F)F)c(-n3cc(C4CCN(C)C4)cn3)n2)cc1 (single isomer, unassigned) [Example 96]', '7.00 to 8.00'),
  ('CC(C)(O)Cc1cnn(-c2nc(Nc3ccc(S(=O)(=O)NC4CC4)cc3)ncc2C(F)(F)F)c1', '7.00 to 8.00'),
  ('CNS(=O)(=O)c1ccc(Nc2ncc(C(F)(F)F)c(-n3ncc(CC(C)(C)O)c3C)n2)cc1', '≤ 7.00'),
  ('CNS(=O)(=O)c1ccc(Nc2ncc(C(F)(F)F)c(-n3cccn3)n2)cc1', '≤ 7.00'),
  ('CC(C)(O)Cc1cnn(-c2nc(Nc3ccc(S(N)(=O)=O)cc3)ncc2C(F)(F)F)c1', '≥ 8.00'),
  ('O=S(=O)(NCCO)c1ccc(Nc2ncc(C(F)(F)F)c(-n3cccn3)n2)nc1', '≤ 7.00'),
  ('CNS(=O)(=O)c1ccc(Nc2ncc(C(F)(F)F)c(-n3cc(C4CCN(C(C)C)CC4)cn3)n2)cc1', '7.00 to 8.00'),
  ('CNS(=O)(=O)c1ccc(Nc2ncc(C(F)F)c(-n3cccn3)n2)cc1', '≤ 7.00'),
  ('CNS(=O)(=O)c1ccc(Nc2ncc(C(F)(F)F)c(-n3cc(C[C@@H](C)O)cn3)n2)cc1 (single isomer, unassigned)', '7.00 to 8.00'),
  ('CC(C)(O)Cc1cnn(-c2nc(N[C@H]3CCOC[C@@H]3O)ncc2C(F)(F)F)c1 (single isomer, unassigned)', '≤ 7.00'),
  ('CNS(=O)(=O)c1ccc(Nc2ncc(C(F)(F)F)c(-n3nccc3C3CC3)n2)cc1', '≤ 7.00'),
  ('CNS(=O)(=O)c1ccc(Nc2ncc(C(F)(F)F)c(-n3cc(C4(C#N)CC4)cn3)n2)cc1', '≤ 7.00'),
  ('CNS(=O)(=O)c1ccc(Nc2nccc(-n3cccn3)n2)cc1', '≤ 7.00'),
  ('CNS(=O)(=O)c1ccc(Nc2ncc(C(F)(F)F)c(-n3cc([C@H]4C[C@@H](O)C4)cn3)n2)cc1', '7.00 to 8.00'),
  ('CNS(=O)(=O)c1ccc(Nc2ncc(C(F)(F)F)c(-n3cc(C4CCN(C)C4)cn3)n2)cc1 (single isomer, unassigned) [Example 95]', '7.00 to 8.00'),
  ('CNS(=O)(=O)c1ccc(Nc2ncc(C(F)(F)F)c(-n3cc(Br)cn3)n2)cc1', '≤ 7.00'),
  ('CC(C)(O)CNS(=O)(=O)c1ccc(Nc2ncc(C(F)(F)F)c(-n3cccn3)n2)cc1', '≤ 7.00'),
  ('CNS(=O)(=O)c1ccc(Nc2ncc(C(F)(F)F)c(-n3cc(C4CCNC4)cn3)n2)cc1 (single isomer, unassigned)', '7.00 to 8.00'),
  ('CNS(=O)(=O)c1ccc(Nc2ncc(C(F)(F)F)c(-n3cc(C4CCNCC4)cn3)n2)cc1', '7.00 to 8.00');
